Origin of the recorded values: ChEMBL document CHEMBL6074711

Please provide measured MIC for the entries that follow.
system: Escherichia coli; assay: Antibacterial activity against Escherichia coli ATCC25922 incubated for 16 to 20 hrs by broth microdilution method; type: functional; details: time 16-20 hrs

Dear colleague, please send me the reported MIC for CC[C@H]1OC(=O)C[C@@H](O)[C@H](C)[C@@H](O[C@@H]2O[C@H](C)[C@@H](O)[C@H](N(C)C)[C@H]2O)[C@@H](CCN(C)Cc2cn(-c3cnc4ccccc4c3)nn2)C[C@@H](C)C(=O)/C=C/C(C)=C/[C@@H]1CNCc1cc(F)cc(F)c1 when you can.
1 µg/mL

Dear colleague, please send me the reported MIC for CC[C@H]1OC(=O)C[C@@H](O)[C@H](C)[C@@H](O[C@@H]2O[C@H](C)[C@@H](O)[C@H](N(C)C)[C@H]2O)[C@@H](CCNCc2cn(-c3cnc4ccccc4c3)nn2)C[C@@H](C)C(=O)/C=C/C(C)=C/[C@@H]1CN1CCCCCCC1 when you can.
2 µg/mL

Dear colleague, please send me the reported MIC for CC[C@H]1OC(=O)C[C@@H](O)[C@H](C)[C@@H](O[C@@H]2O[C@H](C)[C@@H](O)[C@H](N(C)C)[C@H]2O)[C@@H](CCNCc2cn(-c3cnc4ccccc4c3)nn2)C[C@@H](C)C(=O)/C=C/C(C)=C/[C@@H]1CO when you can.
4 µg/mL

Dear colleague, please send me the reported MIC for C[C@@H](O)[C@H]1C(=O)N2C(C(=O)O)=C(S[C@@H]3CN[C@H](C(=O)N(C)C)C3)[C@H](C)[C@H]12 when you can.
0.125 µg/mL

Dear colleague, please send me the reported MIC for CC[C@H]1OC(=O)C[C@@H](O)[C@H](C)[C@@H](O[C@@H]2O[C@H](C)[C@@H](O)[C@H](N(C)C)[C@H]2O)[C@@H](CCN(C)Cc2cn(-c3cnc4ccccc4c3)nn2)C[C@@H](C)C(=O)/C=C/C(C)=C/[C@@H]1CNc1ccc(Br)cc1 when you can.
4 µg/mL

Dear colleague, please send me the reported MIC for CC[C@H]1OC(=O)C[C@@H](O)[C@H](C)[C@@H](O[C@@H]2O[C@H](C)[C@@H](O)[C@H](N(C)C)[C@H]2O)[C@@H](CCNCc2cn(-c3cnc4ccccc4c3)nn2)C[C@@H](C)C(=O)/C=C/C(C)=C/[C@@H]1CN(C)Cc1ccccc1 when you can.
2 µg/mL

Dear colleague, please send me the reported MIC for CC[C@H]1OC(=O)C[C@@H](O)[C@H](C)[C@@H](O[C@@H]2O[C@H](C)[C@@H](O)[C@H](N(C)C)[C@H]2O)[C@@H](CCNCc2cn(-c3cnc4ccccc4c3)nn2)C[C@@H](C)C(=O)/C=C/C(C)=C/[C@@H]1CN(C)CC when you can.
4 µg/mL

Dear colleague, please send me the reported MIC for CC[C@H]1OC(=O)C[C@@H](O)[C@H](C)[C@@H](O[C@@H]2O[C@H](C)[C@@H](O)[C@H](N(C)C)[C@H]2O)[C@@H](CCNCc2cn(-c3cnc4ccccc4c3)nn2)C[C@@H](C)C(=O)/C=C/C(C)=C/[C@@H]1CN1CCCCCC1 when you can.
1 µg/mL

Dear colleague, please send me the reported MIC for CC[C@H]1OC(=O)C[C@@H](O)[C@H](C)[C@@H](O[C@@H]2O[C@H](C)[C@@H](O)[C@H](N(C)C)[C@H]2O)[C@@H](CCN(C)Cc2cn(-c3cnc4ccccc4c3)nn2)C[C@@H](C)C(=O)/C=C/C(C)=C/[C@@H]1CNc1ccc(C)cc1 when you can.
4 µg/mL

Dear colleague, please send me the reported MIC for CCc1ccc(NC[C@H]2/C=C(C)/C=C/C(=O)[C@H](C)C[C@H](CCN(C)Cc3cn(-c4cnc5ccccc5c4)nn3)[C@H](O[C@@H]3O[C@H](C)[C@@H](O)[C@H](N(C)C)[C@H]3O)[C@@H](C)[C@H](O)CC(=O)O[C@@H]2CC)cc1 when you can.
2 µg/mL

Dear colleague, please send me the reported MIC for CCCNC[C@H]1/C=C(C)/C=C/C(=O)[C@H](C)C[C@H](CCN(Cc2cn(-c3cnc4ccccc4c3)nn2)c2ccccc2)[C@H](O[C@@H]2O[C@H](C)[C@@H](O)[C@H](N(C)C)[C@H]2O)[C@@H](C)[C@H](O)CC(=O)O[C@@H]1CC when you can.
8 µg/mL

Dear colleague, please send me the reported MIC for CC[C@H]1OC(=O)C[C@@H](O)[C@H](C)[C@@H](O[C@@H]2O[C@H](C)[C@@H](O)[C@H](N(C)C)[C@H]2O)[C@@H](CC=O)C[C@@H](C)C(=O)/C=C/C(C)=C/[C@@H]1CO when you can.
> 32 µg/mL

Dear colleague, please send me the reported MIC for CC[C@H]1OC(=O)C[C@@H](O)[C@H](C)[C@@H](O[C@@H]2O[C@H](C)[C@@H](O)[C@H](N(C)C)[C@H]2O)[C@@H](CCN(C)Cc2cn(-c3cnc4ccccc4c3)nn2)C[C@@H](C)C(=O)/C=C/C(C)=C/[C@@H]1CN1CCCc2ccccc21 when you can.
2 µg/mL

Dear colleague, please send me the reported MIC for CC[C@H]1OC(=O)C[C@@H](O)[C@H](C)[C@@H](O[C@@H]2O[C@H](C)[C@@H](O)[C@H](N(C)C)[C@H]2O)[C@@H](CCN(C)Cc2cn(-c3cnc4ccccc4c3)nn2)C[C@@H](C)C(=O)/C=C/C(C)=C/[C@@H]1CNc1ccc2ccccc2c1 when you can.
8 µg/mL
